- System: UniProt P21555
- Sequence (P21555 whole entry): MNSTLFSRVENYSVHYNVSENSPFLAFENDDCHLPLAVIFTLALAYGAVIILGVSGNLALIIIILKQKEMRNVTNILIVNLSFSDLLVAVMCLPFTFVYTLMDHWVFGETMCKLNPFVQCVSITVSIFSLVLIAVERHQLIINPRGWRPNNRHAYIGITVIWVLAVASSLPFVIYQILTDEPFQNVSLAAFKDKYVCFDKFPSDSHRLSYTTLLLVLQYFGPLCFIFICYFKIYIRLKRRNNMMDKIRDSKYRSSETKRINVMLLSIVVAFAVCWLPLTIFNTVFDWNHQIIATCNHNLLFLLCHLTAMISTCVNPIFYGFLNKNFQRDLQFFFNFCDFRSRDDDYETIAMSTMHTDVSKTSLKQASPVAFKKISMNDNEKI
- Assay overview: Displacement of [125I]PYY from rat recombinant NPY Y1 receptor overexpressed in membrane of Sf9 cells
Endpoint label: Ki (nM)
# unit: nM | format: bare number

input: Record `COc1cc(Cl)c(-c2c(C)nn3c(NCCNC4CCOCC4)cc(C)nc23)c(Cl)c1` : what is its Ki with UniProt P21555?
output: 3.5

---

- System: Neuropeptide Y receptor type 1 (Homo sapiens)
- Sequence (P25929 whole entry): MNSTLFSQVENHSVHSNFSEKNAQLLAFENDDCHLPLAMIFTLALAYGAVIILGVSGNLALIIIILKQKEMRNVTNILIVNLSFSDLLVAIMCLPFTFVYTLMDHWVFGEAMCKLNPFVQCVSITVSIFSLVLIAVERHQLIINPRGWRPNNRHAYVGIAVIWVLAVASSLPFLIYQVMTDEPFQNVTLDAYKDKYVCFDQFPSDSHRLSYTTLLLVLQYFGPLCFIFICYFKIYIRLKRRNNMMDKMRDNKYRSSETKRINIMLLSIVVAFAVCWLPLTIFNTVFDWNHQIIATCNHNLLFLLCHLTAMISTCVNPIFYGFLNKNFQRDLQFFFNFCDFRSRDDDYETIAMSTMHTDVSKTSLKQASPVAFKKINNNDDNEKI
- Assay overview: Displacement of [125I]-PYY from human recombinant NPY Y1 receptor overexpressed in membrane of Sf9 cells
Endpoint label: Ki

1) COc1cc(Cl)c(-c2c(C)nn3c(NCC(C)NC4CCOCC4)cc(C)nc23)c(Cl)c1 (racemic) | 5 nM
2) COc1cc(Cl)c(-c2c(C)nn3c(NCCNCCF)cc(C)nc23)c(Cl)c1 | 22 nM
3) COc1cc(Cl)c(-c2c(C)nn3c(NCCNC4CCCCC4F)cc(C)nc23)c(Cl)c1 (mixture of isomers) | 5 nM

input: Record `Cc1cc(C)c(-c2c(C)nn3c(NCCN)cc(C)nc23)c(C)c1` : what is its Ki with Neuropeptide Y receptor type 1 (Homo sapiens)?
output: 2300 nM
